Each recorded value in this set is attributed to PubChem BioAssay AID1159580.

# ASSAY_METHOD_TEXT: chemical genetic growth profiling, strain panel (AID 1159580);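 also: tested at 20 µM; growth read once vehicle control cultures reached saturation at 30 °C; 1 = growth at the plate median or of vehicle wells; lower values mean less growth of the strain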
# CONDITIONS_USED: S. cerevisiae deletion strains, growth OD, locus YNL233W, strain BNI4, hits give low values
Among all 5,500 compounds or so, about 2,000 (36%) were called active. Another 18% or so got no clear call; they are omitted. This is one part of the list.
Entries and their measured normalized growth follow.
I'd appreciate a reply containing only the number, no unit.

Examples with answers:
CN1C[C@H](C(=O)N[C@]2(C)O[C@@]3(O)[C@@H]4CCCN4C(=O)[C@H](Cc4ccccc4)N3C2=O)C[C@@H]2c3cccc4[nH]cc(c34)C[C@H]21	0.933
CCN(Cc1ccncc1)C(=O)C(CO)c1ccccc1 (configuration not stated)	1
CCOC(=O)NC1=C(C2CC2)C(=O)C(NC(=O)OCC)=C(C2CC2)C1=O	1.01
NC(=O)c1ncn([C@@H]2O[C@H](CO)[C@@H](O)[C@H]2O)n1	1.01

query: Endpoint output: normalized growth of CC1CCC2(OC1)OC1CC3C4CC[C@H]5C[C@@H](O)CC[C@]5(C)C4CC(=O)[C@]3(C)C1C2C (some centres not stated) . Value?
result: 0.998

query: Endpoint output: normalized growth of CCC1OC(=O)[C@H](C)C(=O)[C@H](C)[C@@H](OC2O[C@H](C)C[C@H](N(C)C)[C@H]2O)[C@](C)(OC)C2(CCCn3cnc(-c4cccnc4)c3)C[C@@H](C)C(=O)[C@H](C)[C@H]3N(C2)C(=O)O[C@]13C (some centres not stated) . Value?
result: 1.01

query: Endpoint output: normalized growth of CC1(C)C=CC(=O)[C@@]2(C)C1CC(=O)[C@]1(C)C2CC[C@@]2(C)[C@H](c3ccoc3)OC(=O)C3OC321 (some centres not stated) . Value?
result: 0.984
